System: 485368-065-R4-J2-PDC spheroids with HUVEC/MSC, viability;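 note: spheroids exposed to compounds for seven days; 100% = DMSO vehicle control wells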
Test: Anticancer human tumor 485368-065-R4-J2-PDC patient-derived pancreatic carcinoma cell line growth inhibition [CLK]
Experimental setup: second compound 10 µM; first compound 1 µM; hits give low values
Text: A high-throughput screen of multi-cell type tumor spheroids was designed to identify active combinations of […] and targeted small molecules. Complex spheroids include a stromal component modeled by human endothelial cells (HUVEC) and fibroblasts modeled by human mesenchymal stem cells (MSCs). […] Compounds. […] If the clinical Cmax for an agent had not been determined, the highest concentration tested was 10 microM. […]
Reported endpoint: viability, T/C (%)

{"Compound": "CC(Nc1ccc2c(c1)OCCn1cc(N3C(=O)OCC3C(F)F)nc1-2)C(N)=O (stereo not given) + CN1CCN(c2cc(C(=O)Nc3cc4cc(-c5cnn(C)c5)ccc4cn3)ccn2)CC1", "Reported": 2.62}
{"Compound": "C=C(F)C(=O)N1CCN(c2nc(OCC3CCCN3C)nc3c2CCN(c2cccc4cccc(Cl)c24)C3)CC1CC#N (stereo not given) + CN1CCN(c2cc(C(=O)Nc3cc4cc(-c5cnn(C)c5)ccc4cn3)ccn2)CC1", "Reported": 2.01}
{"Compound": "CC1COCCN1c1cc(C2(S(C)(=N)=O)CC2)nc(-c2ccnc3[nH]ccc23)n1 (stereo not given) + CN1CCN(c2cc(C(=O)Nc3cc4cc(-c5cnn(C)c5)ccc4cn3)ccn2)CC1", "Reported": 1.98}
{"Compound": "CC(=O)O[C@H]1C(=O)[C@@]2(C)[C@H]([C@H](OC(=O)c3ccccc3)[C@]3(O)C[C@H](OC(=O)[C@H](O)[C@@H](NC(=O)c4ccccc4)c4ccccc4)C(C)=C1C3(C)C)[C@]1(OC(C)=O)CO[C@@H]1C[C@@H]2O + CNC(=O)c1ccc(Nc2nc(OC3CCCC3)c3c(-c4ccc5nc(C)oc5c4)c[nH]c3n2)c(OC)c1", "Reported": 77.5}
{"Compound": "COc1c(OCCCN2CCOCC2)ccc2c3n(c(=NC(=O)c4cnc(N)nc4)nc12)CCN3 + CNC(=O)c1ccc(Nc2nc(OC3CCCC3)c3c(-c4ccc5nc(C)oc5c4)c[nH]c3n2)c(OC)c1", "Reported": 30.1}
{"Compound": "CCCS(=O)(=O)Nc1ccc(F)c(C(=O)c2c[nH]c3ncc(-c4ccc(Cl)cc4)cc23)c1F + CNC(=O)c1ccc(Nc2nc(OC3CCCC3)c3c(-c4ccc5nc(C)oc5c4)c[nH]c3n2)c(OC)c1", "Reported": 78.9}
{"Compound": "COC1C=CCC(C)C(C)S(=O)(=O)NC(=O)c2ccc3c(c2)N(CC2CCC21)CC1(CCCc2cc(Cl)ccc21)CO3 (stereo not given) + CNC(=O)c1ccc(Nc2nc(OC3CCCC3)c3c(-c4ccc5nc(C)oc5c4)c[nH]c3n2)c(OC)c1", "Reported": 66.7}
{"Compound": "CC(Nc1ccc2c(c1)OCCn1cc(N3C(=O)OCC3C(F)F)nc1-2)C(N)=O (stereo not given) + CNC(=O)c1ccc(Nc2nc(OC3CCCC3)c3c(-c4ccc5nc(C)oc5c4)c[nH]c3n2)c(OC)c1", "Reported": 45.5}
{"Compound": "CC(CO)NC(=O)c1cc(-c2ccc(Cl)cc2)nn(-c2cnn(C)c2)c1=O (stereo not given) + CN1CCN(c2cc(C(=O)Nc3cc4cc(-c5cnn(C)c5)ccc4cn3)ccn2)CC1", "Reported": 1.26}
{"Compound": "CC1COCCN1c1cc(C2(S(C)(=N)=O)CC2)nc(-c2ccnc3[nH]ccc23)n1 (stereo not given) + CNC(=O)c1ccc(Nc2nc(OC3CCCC3)c3c(-c4ccc5nc(C)oc5c4)c[nH]c3n2)c(OC)c1", "Reported": 71.6}
